Recorded solubility at 24 h values for a group of compounds are listed next.
experimental-protocol: Equilibrium solubility
Assay type: physicochemical
experimental-setup: 21 °C, aqueous buffer, thermodynamic from solid; buffer 0.15 M Citrate, pH 4.1
property-label: solubility at 24 h (µg/mL)

INSERT INTO measurements (compound, property_label, obs_value) VALUES
  ('CN1CCN(c2cc(-c3ccccc3CO)c(N(C)C(=O)C(C)(C)c3cc(C(F)(F)F)cc(C(F)(F)F)c3)cn2)CC1', 'solubility at 24 h', 200),
  ('Cc1ccccc1-c1cc(N2CCN(C)CC2)ncc1N(C)C(=O)C(C)(C)c1cc(C(F)(F)F)cc(C(F)(F)F)c1 [EP 1 035 115, reference compound]', 'solubility at 24 h', 26);

----------
experimental-protocol: PAMPA PSR4p permeability assay
Type: in vitro ADME
experimental-setup: pH 6.5, DMSO stock solution
property-label: Acceptor (sample distribution) (%)

INSERT INTO assay_data (compound, property_label, output_unit, obs_value) VALUES
  ('Cc1ccccc1-c1cc(N2CCN(C)CC2)ncc1N(C)C(=O)C(C)(C)c1cc(C(F)(F)F)cc(C(F)(F)F)c1 [EP 1 035 115, reference compound]', 'Acceptor (sample distribution)', '%', 2),
  ('CN1CCN(c2cc(-c3ccccc3CO)c(N(C)C(=O)C(C)(C)c3cc(C(F)(F)F)cc(C(F)(F)F)c3)cn2)CC1', 'Acceptor (sample distribution)', '%', 3);

----------
Recorded Donor (sample distribution) values for a group of compounds are listed next.
experimental-protocol: PAMPA PSR4p permeability assay
Type: in vitro ADME
experimental-setup: pH 6.5, DMSO stock solution
property-label: Donor (sample distribution) (%)

INSERT INTO assay_data (compound, obs_value) VALUES
  ('Cc1ccccc1-c1cc(N2CCN(C)CC2)ncc1N(C)C(=O)C(C)(C)c1cc(C(F)(F)F)cc(C(F)(F)F)c1 [EP 1 035 115, reference compound]', 50),
  ('CN1CCN(c2cc(-c3ccccc3CO)c(N(C)C(=O)C(C)(C)c3cc(C(F)(F)F)cc(C(F)(F)F)c3)cn2)CC1', 26);

----------
Recorded solubility at 24 h values for a group of molecules are listed next.
experimental-protocol: Equilibrium solubility
Type: physicochemical
experimental-setup: 21 °C, aqueous buffer, thermodynamic from solid; buffer 0.05 M Phosphate; pH 6.5 (EP 1 035 115) / pH 6.7 (Compound I-2)
property-label: solubility at 24 h (µg/mL)

INSERT INTO results (molecule, property_label, obs_value) VALUES
  ('CN1CCN(c2cc(-c3ccccc3CO)c(N(C)C(=O)C(C)(C)c3cc(C(F)(F)F)cc(C(F)(F)F)c3)cn2)CC1', 'solubility at 24 h', 8),
  ('Cc1ccccc1-c1cc(N2CCN(C)CC2)ncc1N(C)C(=O)C(C)(C)c1cc(C(F)(F)F)cc(C(F)(F)F)c1 [EP 1 035 115, reference compound]', 'solubility at 24 h', 1);

From: patent US7211579B2
